tested.target: S1P1 (Homo sapiens)
Sequence (P21453 whole entry, species assumed): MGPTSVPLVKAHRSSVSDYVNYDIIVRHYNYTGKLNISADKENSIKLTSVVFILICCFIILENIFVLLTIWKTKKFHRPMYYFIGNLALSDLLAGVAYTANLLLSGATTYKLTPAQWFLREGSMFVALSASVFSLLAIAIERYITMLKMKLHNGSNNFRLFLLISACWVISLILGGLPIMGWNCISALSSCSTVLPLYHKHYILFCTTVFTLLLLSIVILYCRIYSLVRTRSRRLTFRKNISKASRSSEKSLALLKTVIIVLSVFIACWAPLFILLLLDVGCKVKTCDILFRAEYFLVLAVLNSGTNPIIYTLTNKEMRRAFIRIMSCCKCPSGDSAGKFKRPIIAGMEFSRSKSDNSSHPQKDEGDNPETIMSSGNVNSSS
assay.details: Receptor binding assay, [33P]sphingosine 1-phosphate competition, membranes of CHO cells expressing S1P1
test.context: 384 well plate; read-out: S1P1 Binding Ki [M] (384 well plate)
Experimental: Membranes were prepared from CHO cells expressing S1P1 or S1P3 for use in ligand binding studies. […] [33P]sphingosine 1-phosphate (3000 Ci/mmol; American Radiolabeled Chemicals, Inc.) was added to test compounds in 20% DMSO by competition. […] Binding was performed for 60 min at RT on a shaker and bound radioactivity was measured on a PerkinElmer 1450 MicroBeta counter. […] Binding data were analyzed using the GraphPad Prism program or Genedata software. […]
Where a name gives a salt, the structure may show the parent alone.
observed.property: Ki (M)
Express it in M; write the number only.

Incoming: Which Ki value belongs to Cc1ccccc1-c1ccc(-c2nc(-c3ccc([C@H](C)N[C@@H](C)C(=O)O)cc3)no2)cc1C(F)(F)F (racemic) [Example 26, hydrochloride salt] ?
Outgoing: 2.24e-09

Incoming: Cc1ccccc1-c1ccc(-c2nc(-c3cccc(CN(C)C(C(=O)O)C(C)C)c3)no2)cc1C(F)(F)F (stereo not shown) , same question.
Outgoing: 5.26e-09

Incoming: Cc1ccccc1-c1ccc(-c2nc(-c3ccc([C@H](C)N[C@@H](C)C(=O)O)cc3)no2)cc1C(F)(F)F [Example 18, hydrochloride salt] , same question.
Outgoing: 1.03e-08

Incoming: COCc1cc(-c2nc(-c3ccc(CN(C)[C@@H](C)C(=O)O)c(F)c3)no2)ccc1-c1ccccc1C [Example 44, hydrochloride salt] , same question.
Outgoing: 1.58e-09

Incoming: `Cc1ccccc1-c1ccc(-c2nc(-c3ccc(CNC4(C(=O)O)CCCC4)cc3)no2)cc1C(F)(F)F` , same question.
Outgoing: 6.83e-09

Incoming: Cc1cc(-c2nc(-c3ccc([C@@H](C)N(C)CC(=O)O)cc3)no2)ccc1-c1ccccc1C(F)(F)F [Example 35, hydrochloride salt] , same question.
Outgoing: 6.14e-09

Incoming: Cc1ccccc1-c1ccc(-c2nc(-c3ccc(CN(C)[C@@H](CO)C(=O)O)c(F)c3)no2)cc1C(F)(F)F [Example 45, hydrochloride salt] , same question.
Outgoing: 2.68e-09

Incoming: Cc1ccccc1-c1ccc(-c2nc(-c3cc(F)cc(CNC(C)(C)C(=O)O)c3)no2)cc1C(F)(F)F [Example 46, hydrochloride salt] , same question.
Outgoing: 7.94e-10

Incoming: `CCN(Cc1cccc(-c2noc(-c3ccc(-c4ccccc4C)c(C(F)(F)F)c3)n2)c1)C(C)(C)C(=O)O` , same question.
Outgoing: 2.85e-09

Incoming: CC[C@@H](N[C@H](C)c1ccc(-c2noc(-c3ccc(-c4ccccc4C)c(C(F)(F)F)c3)n2)cc1)C(=O)O [Example 11, hydrochloride salt] , same question.
Outgoing: 3.96e-09

Incoming: COCc1cc(-c2nc(-c3ccc([C@@H](C)N[C@H](C)C(=O)O)cc3)no2)ccc1-c1ccccc1C [Example 4, hydrochloride salt] , same question.
Outgoing: 9.18e-10

Incoming: `CCN(Cc1ccc(-c2noc(-c3ccc(-c4ccccc4C)c(C(F)(F)F)c3)n2)cc1)[C@@H](C)C(=O)O` , same question.
Outgoing: 2.56e-09

Incoming: Cc1ccccc1-c1ccc(-c2nc(-c3cccc(CNC(C(=O)O)C(C)O)c3)no2)cc1C(F)(F)F (stereo not shown) , same question.
Outgoing: 5.47e-09
